experiment: in vivo; design: species or system male beagle dogs; details: male, beagle, dog, po, 2.5 mg/kg

# COMPOUND, Cmax, ng/mL
data = [
    ("[2H]c1nc2c(c(=O)n(CCCC([2H])([2H])C(=O)C([2H])([2H])[2H])c(=O)n2C)n1C([2H])([2H])[2H]", 1230),
]

* * *

test: Pharmacokinetic study of 435(S) and other representative compounds in chimps after oral dosing (Example 40); format: in vivo; settings: female, plasma, po, 65 mg, Table 17 iii): female chimp, 435(S) and 421(S), species named in label measured in plasma, read-out: AUC0-12 Female
Quick reference: AUC(0-t) of the listed items.
PROPERTY: AUC(0-t) (ng·h/mL)

# COMPOUND, UNIT_OF_MEASURE, MEASURED
data = [
    ("[2H]c1nc2c(c(=O)n(CCCC(=O)O)c(=O)n2C)n1C([2H])([2H])[2H]", "ng·h/mL", 376),
    ("[2H]c1nc2c(c(=O)n(CCCC(=O)O)c(=O)n2C)n1C", "ng·h/mL", 350),
    ("[2H]c1nc2c(c(=O)n(CCCC([2H])([2H])[C@@H](O)C([2H])([2H])[2H])c(=O)n2C)n1C [Compound 421(S)]", "ng·h/mL", 634),
    ("[2H]c1nc2c(c(=O)n(CCCC([2H])([2H])[C@@]([2H])(O)C([2H])([2H])[2H])c(=O)n2C)n1C([2H])([2H])[2H] [Compound 435(S)]", "ng·h/mL", 947),
]

* * *

assay: Pharmacokinetic study in rats of (S)-M1 and Compound 435(S) after intravenous dosing (Example 37); format: in vivo, male Sprague-Dawley rats; conditions: male, Sprague-Dawley, rat, intravenous bolus single 5 mg/kg dose of 1:1 combination of (S)-M1 and 435(S), species named in label measured in plasma

# COMPOUND, UNIT_OF_MEASURE, AUC(0-inf)
records = [
    ("[2H]c1nc2c(c(=O)n(CCCC(=O)O)c(=O)n2C)n1C([2H])([2H])[2H]", "ng·h/mL", 1520),
    ("[2H]c1nc2c(c(=O)n(CCCC([2H])([2H])[C@@]([2H])(O)C([2H])([2H])[2H])c(=O)n2C)n1C([2H])([2H])[2H] [Compound 435(S)]", "ng·h/mL", 7130),
]

* * *

test: Pharmacokinetic study of 435(S) and other representative compounds in chimps after oral dosing (Example 40); format: in vivo; conditions: female, plasma, po, 65 mg, Table 17 iv): female chimp, 435(S) and 437(S), species named in label measured in plasma, read-out: AUC0-12 Female
PROPERTY: AUC(0-t)

# COMPOUND, PROPERTY, MEASURED
measured = [
    ("[2H]c1nc2c(c(=O)n(CCCC([2H])([2H])[C@@]([2H])(O)C([2H])([2H])[2H])c(=O)n2C)n1C([2H])([2H])[2H] [Compound 435(S)]", "AUC(0-t)", "1140 ng·h/mL"),
    ("[2H]c1nc2c(c(=O)n(CCCC(=O)O)c(=O)n2C)n1C [Deuterated M5 (M5b)]", "AUC(0-t)", "416 ng·h/mL"),
    ("[2H]c1nc2c(c(=O)n(CCCC(=O)O)c(=O)n2C)n1C([2H])([2H])[2H] [Deuterated M5 (M5a)]", "AUC(0-t)", "306 ng·h/mL"),
    ("[2H]c1nc2c(c(=O)n(CCCC([2H])([2H])[C@@]([2H])(O)C([2H])([2H])[2H])c(=O)n2C)n1C [Compound 437(S)]", "AUC(0-t)", "1180 ng·h/mL"),
]

Entry source: patent US8263601B2
